# assayProcedure: soluble on expression in E. coli; label from the status in PepcDB or PDB records
reportedEndpoint: soluble on expression in E. coli

biosequence	experimentalValue
MGSDKIHHHHHHAPNEEGISVQKMTGFPEGEPGFSLGVSACYAGIYQGELLIAGGCNFPETPAAEGGKKKFYQGIYAADASADSVFVWRKVGQLPVAAAYGVSVSTPRGIVCVGGSNENGSLSTVYRLSLSDDKQAVIVDTLPSLPCTMDNMSGSVVDYTLFVAGGNVNGKPSNGLYCLNLGNPETGWQQLPDFPGAPRVQPVCVGQRKENETLLYLWGGFSGAFDGRSATLSTDGYCYSPSLQQWQPVSTPIGSDSVPVALGGGAGIALTDSLILCTGGVNKDIFLSALQREEMMKAAVTGGNQAAVDSLKSEAKTYMLHPAEWYRFNDRILIYNTRRDKWEEAVRSQDVARAGAALTTGQGQTFFNINGELKPGIRTPEIAKIMID	not soluble
MTYIAPEESAFGVGFFERLEANAKPMSLTRGPDAWDVLESIKRNVSNILNTRIGGAQSAPHLGLVDFNDATLETLDLSVRIKLAIQQCLERYEPRLTRVLVRADQDSFNPLTLRFHITATINSEALHEKVQFSLLLDQSRKYRVF	not soluble
MGHHHHHHSHMEEVLEAAEKIRSMEVRGAARIARFAAETLMKFAEKASDEKFDEEMRFAAETLLNTRPTAVSLYNAINYVMRYSGESVEEKRQSVIRRAREFINWVETAQRKIGEIGEKRIKDGYTVMTHCNSSAALSVIKKAHENGKRVEVIATESRPRWQGHLTVKQLREAGIEVTLIVDSAVRYFINEVDCVVVGADTITANGALINKIGTSQIALAAKEARVPFMVAAETYKFSPKTLFGELVVIEERDAREVAPEEILKLGVKVRNPAFDVTPRDYIDVIITEIGAIPPEMAYIVITERLGYAGIEEEEITLNSRHFD	not soluble
MSLTRCVLEGMKTKHALRHHMKLHKGIKEYECKECHRRFAQKVNMLKHCKRHTGIKDFMCELCGKTFSERNTMETHKLIHTVGKQWTCSVCDKKYVTEYMLQKHVQLTHDKVEAQSCQLCGTKVSTRASMSRHMRRKHPEVLAVRIDEGHHHHHH	not soluble
MNHKVHHHHHHIEGRHMAVVKEVLEIAEKIKNMEIRGAGKIARSAAYALQLQAEKSKATNVDEFWKEMKQAAKILFETRPTAVSLPNALRYVMHRGKIAYSSGADLEQLRFVIINAAKEFIHNSEKALERIGEFGAKRIEDGDVIMTHCHSKAAISVMKTAWEQGKDIKVIVTETRPKWQGKITAKELASYGIPVIYVVDSAARHYMKMTDKVVMGADSITVNGAVINKIGTALIALTAKEHRVWTMIAAETYKFHPETMLGQLVEIEMRDPTEVIPEDELKTWPKNIEVWNPAFDVTPPEYVDVIITERGIIPPYAAIDILREEFGWALKYTEPWED	soluble
SNAMSMAYEEYMRQLVVPMRRELTGAGFEELTTAEEVENFMEKAEGTTLVVVNSVCGCAAGLARPAATQAVLQNDKTPDNTVTVFAGQDKEATAKMREYFTGAAPSSPSMALLKGKEVVHFIPRHEIEGHDMEEIMKNLTAAFDAHC	soluble
MADRPQLSIIIPVFNEAKILQKSPTENTRQYLGQFTEDQRIEILIIDGGSQDSTVELCQTYADSLPLHVFISPQTGRANQMNYGASLSRSEWLLFLHLDSILPHDFFTQIAEILTNSSYIAGAFGLTIDLPGRPYRWLEKLILWRSIYAQKPYGDQGLFIQRQDFQQLGGFADLPIMEDYQFMQKLGKQRGKVAIAGGKVITSGRRWQKLGLLRTTAINQLVVAGYHLGVSPQTLVHWYRGAKPNRGNRPNSDGTSCLEHHHHHH	soluble
MAHHHHHHMSGRPEEGLYGNVESQSSNVSQGGRRRTRSEFEGDTDHSSATRIRLEGMYRPQWTMSSTVKDILLEGSTLRTDMKLNEFIRSNLDEEWVVERNGNVIMEAFVQEPDAYVQDQELLRRIINLPAYQALEERKILLEATYKLHHEGVYFLRQWGEHEGKDTVSSHARGKLNGVLTGIEIEEKERREAEEREKARREEEARRDAEEEKARREEQINFNLTLSIKDAIFQGRARVYKMKLNRFLKMELDGRGVADTNRRVLLKEFFKDPTRYVRDAGVLNEIQASDAYLMAKRAVREEMDMEEDIRKLQYKHLRTLLGWSIASAEIRASVREITKGFLDAVLEELRKPTTTIAR	not soluble
MAFKFKTFAAVGALIGSLALAGCGQDEKDPNHIKVGVIVGAEQQVAEVAQKVAKEKYGLDVELVTFNDYVLPNEALSKGDIDANAFQHKPYLDQQIKDRGYKLVSVGKTFVYPIAGYSKKIKSLDELKDGSQVAVPNDPTNLGRSLLLLQKVGLIKLKDGVGLLPTSLDIVENPKNLKIVELEAPQLPRSLDDAQIALAVINTTYASQIGLTPAKDGIFVEDKDSPYVNLIVTREDNKDAENVKKFVQAYQSDEVYEAANKVFNGGAVKGWLEHHHHHH	soluble
MTKQQIEKLADLLPPFAATLYLDMIPEFQEGYASYVYQTPKQDIQKRRIKQLTKNFERLLDTPSFYVMPVTRKTAEQLLADKGLAYHLLSTVAANQVFAAAVNEDQMLFQVLRNGARVAFVILQEKGEFLEMTLGILETVTENEVPAAIVEAVQTYLLADMQEKLPSLSIMVSQESSKLFYQEQGFVLLAKGCKPGNENDSDVCQLVKYFSKP	not soluble
MAHHHHHHMPSPQSLTGTPRSLQHAPLPAQVVRDALPLRRDVSDLLPVEQLRVLHVLTIAGMPRPHNTHSATISCRLSSPIMSATPNAYWRTCSMRCISVPSLCLEQTLPSSQSTAWMPREAADRSSVCGRSKCAETTATLTPSDISTHSTLPHKRAVPWEREVRRTVLA	not soluble
